The measurements presented in this section are drawn from patent US9962369B2.

# assaySummary: Transdermal delivery of melatonin: plasma level of melatonin after applying composition to skin of a subject
# setupConditions: human, plasma, topical, 3 mg, Plasma level of melatonin, Table 20 control, A− N/A, helper esters 0 mM, 2.0 mL applied, 8 hr after transdermal administration
valueKind: concentration at 8 h

moleculesmiles=COc1ccc2[nH]cc(CCNC(C)=O)c2c1 reportedmeasurement="0.1 ng/mL"

* * *

# assaySummary: Transdermal delivery of melatonin: plasma level of melatonin after applying composition to skin of a subject
# setupConditions: human, plasma, topical, 3 mg, Plasma level of melatonin, Phenylalanine octyl ester hydrochloride 223.02 mM, 0.60 mL applied to skin, 4 hr after transdermal administration
valueKind: concentration at 4 h (ng/mL)

moleculesmiles=COc1ccc2[nH]cc(CCNC(C)=O)c2c1 valuekind="concentration at 4 h" reportedmeasurement=1.3
